# TARGET OR TEST SYSTEM: human SGLT1 (Homo sapiens, UniProt P13866)
# Construct: expressed in transfected cells; host or cells: CHO (Chinese hamster ovary) cells, stably transfected
# Sequence (P13866 1-664): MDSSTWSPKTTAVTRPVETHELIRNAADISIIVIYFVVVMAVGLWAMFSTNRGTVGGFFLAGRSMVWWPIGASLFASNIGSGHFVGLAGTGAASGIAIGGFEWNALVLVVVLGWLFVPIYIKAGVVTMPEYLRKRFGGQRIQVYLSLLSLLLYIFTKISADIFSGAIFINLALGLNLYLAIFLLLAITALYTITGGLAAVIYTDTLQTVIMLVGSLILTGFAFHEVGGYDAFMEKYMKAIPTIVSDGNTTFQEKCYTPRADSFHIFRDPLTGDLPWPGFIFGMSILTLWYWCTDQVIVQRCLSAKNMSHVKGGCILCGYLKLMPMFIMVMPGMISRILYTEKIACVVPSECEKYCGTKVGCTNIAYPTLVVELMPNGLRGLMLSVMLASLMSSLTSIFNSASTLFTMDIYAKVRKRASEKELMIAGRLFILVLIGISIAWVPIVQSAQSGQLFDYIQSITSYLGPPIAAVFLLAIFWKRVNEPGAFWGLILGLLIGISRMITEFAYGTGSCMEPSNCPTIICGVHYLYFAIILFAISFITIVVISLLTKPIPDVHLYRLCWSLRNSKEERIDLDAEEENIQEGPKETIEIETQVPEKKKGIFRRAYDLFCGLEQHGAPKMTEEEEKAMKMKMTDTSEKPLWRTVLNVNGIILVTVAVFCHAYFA
# METHOD: SGLT activity (membrane translocation) by fluorescence resonance energy transfer (FRET)
# Format: cell-based
# TEST SETTINGS: hSGLT1; result in words

{"COMPOUND": "Cc1cccc(S[C@@H]2O[C@H](CO)[C@@H](O)[C@H](O)[C@H]2O)c1 [Thioglucoside 8, m-Tolyl-1'-thio-β-D-glucopyranoside]", "TARGET OR TEST SYSTEM": "human SGLT1 (Homo sapiens, UniProt P13866)", "transport through hSGLT1 (FRET)": "not transported"}
{"COMPOUND": "OCc1ccccc1S[C@@H]1O[C@H](CO)[C@@H](O)[C@H](O)[C@H]1O [Thioglucoside 2]", "TARGET OR TEST SYSTEM": "human SGLT1 (Homo sapiens, UniProt P13866)", "transport through hSGLT1 (FRET)": "not transported"}
{"COMPOUND": "C/C(=C\\CC/C(C)=C/CS[C@@H]1O[C@H](CO)[C@@H](O)[C@H](O)[C@H]1O)CO [Thioglucoside 1]", "TARGET OR TEST SYSTEM": "human SGLT1 (Homo sapiens, UniProt P13866)", "transport through hSGLT1 (FRET)": "not transported"}

###

# TARGET OR TEST SYSTEM: human SGLT1 (Homo sapiens, UniProt P13866)
# Construct: expressed in transfected cells; host or cells: CHO (Chinese hamster ovary) cells, stably transfected
# METHOD: Inhibition of sodium-dependent D-glucose transport, [14C]AMG-uptake
# Type: cell-based
# TEST SETTINGS: hSGLT1; read-out: IC50
ENDPOINT NAME: pIC50
Would you please state pIC50, meaning minus log10 of the concentration in mol/L, as a bare number?

Q) Request: pIC50, test system human SGLT1 (Homo sapiens, UniProt P13866), entry C/C(=C\CC/C(C)=C/CS[C@@H]1O[C@H](CO)[C@@H](O)[C@H](O)[C@H]1O)CO [Thioglucoside 1]
A) 4.46

###

# TARGET OR TEST SYSTEM: human SGLT2 (Homo sapiens, UniProt P31639)
# Sequence (P31639 whole entry): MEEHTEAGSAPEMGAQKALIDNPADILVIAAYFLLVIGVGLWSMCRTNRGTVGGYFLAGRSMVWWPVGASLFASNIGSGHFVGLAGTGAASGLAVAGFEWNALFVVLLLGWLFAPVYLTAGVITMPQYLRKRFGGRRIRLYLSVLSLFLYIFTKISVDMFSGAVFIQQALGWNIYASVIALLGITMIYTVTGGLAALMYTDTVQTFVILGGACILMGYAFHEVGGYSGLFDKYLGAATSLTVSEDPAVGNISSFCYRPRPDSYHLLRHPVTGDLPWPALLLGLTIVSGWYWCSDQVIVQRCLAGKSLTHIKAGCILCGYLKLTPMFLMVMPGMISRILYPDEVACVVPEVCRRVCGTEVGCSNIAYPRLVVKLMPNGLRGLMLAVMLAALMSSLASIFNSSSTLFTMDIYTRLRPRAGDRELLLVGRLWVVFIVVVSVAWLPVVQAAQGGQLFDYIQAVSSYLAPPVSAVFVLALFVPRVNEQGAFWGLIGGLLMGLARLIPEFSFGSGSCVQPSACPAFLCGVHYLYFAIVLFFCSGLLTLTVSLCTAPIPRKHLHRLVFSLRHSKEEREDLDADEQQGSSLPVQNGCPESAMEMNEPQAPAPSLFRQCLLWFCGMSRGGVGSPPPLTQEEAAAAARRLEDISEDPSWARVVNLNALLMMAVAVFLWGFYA
# METHOD: Inhibition of sodium-dependent D-glucose transport, [14C]AMG-uptake
# TEST SETTINGS: hSGLT2; apparent inhibitory constant, Dixon plot
Measured Ki accompanies every entry in the list below.

{"MOLECULE": "OC[C@H]1O[C@@H](Sc2ccccc2)[C@H](O)[C@@H](O)[C@@H]1O [Thioglucoside 3, Phenyl-1'-thio-β-D-glucopyranoside]", "Ki": "135000 nM"}
{"MOLECULE": "Cc1ccccc1S[C@@H]1O[C@H](CO)[C@@H](O)[C@H](O)[C@H]1O [Thioglucoside 4, o-Tolyl-1'-thio-β-D-glucopyranoside]", "Ki": "132000 nM"}

Note: attention shifts to another entry.
Q) Name the recorded Ki for C/C(=C\CC/C(C)=C/CS[C@@H]1O[C@H](CO)[C@@H](O)[C@H](O)[C@H]1O)CO [Thioglucoside 1] .
A) 30 nM

###

# TARGET OR TEST SYSTEM: human SGLT1 (Homo sapiens)
# Construct: expressed in transfected cells; host or cells: CHO (Chinese hamster ovary) cells, stably transfected
# METHOD: Inhibition of sodium-dependent D-glucose transport, [14C]AMG-uptake
# Assay type: cell-based
# TEST SETTINGS: Ki, hSGLT1; apparent inhibitory constant, Dixon plot
pKi: −log10 of the molar value.
Assign class by pKi: not lower than 5 means True; lower than 5 means False.

{"MOLECULE": "OCc1cccc(S[C@@H]2O[C@H](CO)[C@@H](O)[C@H](O)[C@H]2O)c1 [Thioglucoside 5]", "TARGET OR TEST SYSTEM": "human SGLT1 (Homo sapiens)", "ASSIGNED CLASS": "True"}
{"MOLECULE": "OCc1ccccc1S[C@@H]1O[C@H](CO)[C@@H](O)[C@H](O)[C@H]1O [Thioglucoside 2]", "TARGET OR TEST SYSTEM": "human SGLT1 (Homo sapiens)", "ASSIGNED CLASS": "False"}
{"MOLECULE": "Cc1cccc(S[C@@H]2O[C@H](CO)[C@@H](O)[C@H](O)[C@H]2O)c1 [Thioglucoside 8, m-Tolyl-1'-thio-β-D-glucopyranoside]", "TARGET OR TEST SYSTEM": "human SGLT1 (Homo sapiens)", "ASSIGNED CLASS": "True"}

Q) Given the entry OC[C@H]1O[C@@H](Sc2ccccc2)[C@H](O)[C@@H](O)[C@@H]1O [Thioglucoside 3, Phenyl-1'-thio-β-D-glucopyranoside] , answer whether its pKi meets or surpasses 5.
A) True

Q) Given the entry OCc1ccccc1S[C@@H]1O[C@H](CO)[C@H](O)[C@H](O)[C@H]1O [Thioglucoside 6] , answer whether its pKi meets or surpasses 5.
A) False

Q) Given the entry Cc1ccccc1S[C@@H]1O[C@H](CO)[C@@H](O)[C@H](O)[C@H]1O [Thioglucoside 4, o-Tolyl-1'-thio-β-D-glucopyranoside] , answer whether its pKi meets or surpasses 5.
A) True

Q) Given the entry Cc1ccc(S[C@@H]2O[C@H](CO)[C@@H](O)[C@H](O)[C@H]2O)cc1 [Thioglucoside 7, p-Tolyl-1'-thio-β-D-glucopyranoside] , answer whether its pKi meets or surpasses 5.
A) False

###

Measured pIC50 accompanies every entry in the list below.
# TARGET OR TEST SYSTEM: human SGLT1 (Homo sapiens, UniProt P13866)
# Construct: expressed in transfected cells; host or cells: CHO (Chinese hamster ovary) cells, stably transfected
# METHOD: Inhibition of sodium-dependent D-glucose transport, [14C]AMG-uptake
# Type: cell-based
Would you please state pIC50, meaning minus log10 of the concentration in mol/L, as a bare number?

{"MOLECULE": "OCc1ccccc1S[C@@H]1O[C@H](CO)[C@@H](O)[C@H](O)[C@H]1O [Thioglucoside 2]", "TARGET OR TEST SYSTEM": "human SGLT1 (Homo sapiens, UniProt P13866)", "pIC50": 4.39}
{"MOLECULE": "Cc1cccc(S[C@@H]2O[C@H](CO)[C@@H](O)[C@H](O)[C@H]2O)c1 [Thioglucoside 8, m-Tolyl-1'-thio-β-D-glucopyranoside]", "TARGET OR TEST SYSTEM": "human SGLT1 (Homo sapiens, UniProt P13866)", "pIC50": 4.40}
{"MOLECULE": "OCc1cccc(S[C@@H]2O[C@H](CO)[C@@H](O)[C@H](O)[C@H]2O)c1 [Thioglucoside 5]", "TARGET OR TEST SYSTEM": "human SGLT1 (Homo sapiens, UniProt P13866)", "pIC50": 4.33}

Q) Name the recorded pIC50 for OCc1ccccc1S[C@@H]1O[C@H](CO)[C@H](O)[C@H](O)[C@H]1O [Thioglucoside 6] .
A) 3.92

###

# TARGET OR TEST SYSTEM: human SGLT1 (Homo sapiens)
# Construct: expressed in transfected cells; host or cells: CHO (Chinese hamster ovary) cells, stably transfected
# METHOD: Inhibition of sodium-dependent D-glucose transport, [14C]AMG-uptake
# Type: cell-based
# TEST SETTINGS: [14C]AMG-uptake, 10µM; n=16, p<0.001; result in words
ENDPOINT NAME: inhibitory effect, hSGLT1 compared with hSGLT2

{"MOLECULE": "OC[C@H]1O[C@@H](Sc2ccccc2)[C@H](O)[C@@H](O)[C@@H]1O [Thioglucoside 3, Phenyl-1'-thio-β-D-glucopyranoside]", "TARGET OR TEST SYSTEM": "human SGLT1 (Homo sapiens)", "ASSAY RESULT": "stronger for hSGLT1"}
{"MOLECULE": "OCc1ccccc1S[C@@H]1O[C@H](CO)[C@@H](O)[C@H](O)[C@H]1O [Thioglucoside 2]", "TARGET OR TEST SYSTEM": "human SGLT1 (Homo sapiens)", "ASSAY RESULT": "stronger for hSGLT1"}
{"MOLECULE": "C/C(=C\\CC/C(C)=C/CS[C@@H]1O[C@H](CO)[C@@H](O)[C@H](O)[C@H]1O)CO [Thioglucoside 1]", "TARGET OR TEST SYSTEM": "human SGLT1 (Homo sapiens)", "ASSAY RESULT": "stronger for hSGLT1"}
{"MOLECULE": "Cc1ccccc1S[C@@H]1O[C@H](CO)[C@@H](O)[C@H](O)[C@H]1O [Thioglucoside 4, o-Tolyl-1'-thio-β-D-glucopyranoside]", "TARGET OR TEST SYSTEM": "human SGLT1 (Homo sapiens)", "ASSAY RESULT": "stronger for hSGLT1"}

Where do the numbers come from? From patent EP1854806A1.
